system: human plasma; experiment: determination of in-vitro anticoagulant effect in human plasma (APTT); assay type: biochemical; conditions: 10 µM; healthy human plasma, 37°C for 3 min
Endpoint Label: APTT prolongation rate (%)
One number for each entry, in %.

Field: example entries. Status: answers known.
Chem Smiles	Measurement Units	APTT prolongation rate (%)
CC[C@@H](C(=O)Nc1ccc(C(=O)O)c(Cl)c1)n1cc(OC)c(-c2cc(Cl)ccc2-n2cc(Cl)nn2)cc1=O	%	103.8
CC[C@@H](C(=O)Nc1ccc(C(N)=O)cc1F)n1cc(OC)c(-c2cc(Cl)ccc2-n2cc(C(F)(F)F)nn2)cc1=O	%	175.9

Please find the next molecule below.
Requested field: APTT prolongation rate (%). Item: [2H]C([2H])([2H])NC(=O)c1ccc(NC(=O)[C@@H](n2cc(OC([2H])([2H])[2H])c(-c3cc(Cl)ccc3-n3cc(C(F)(F)F)nn3)cc2=O)C([2H])([2H])C([2H])([2H])[2H])cc1F
138.4
